Cited source for all entries: ChEMBL document CHEMBL1154698

Molecular target: Cytochrome P450 2D6 (Homo sapiens, UniProt P10635)
Sequence (P10635 whole entry): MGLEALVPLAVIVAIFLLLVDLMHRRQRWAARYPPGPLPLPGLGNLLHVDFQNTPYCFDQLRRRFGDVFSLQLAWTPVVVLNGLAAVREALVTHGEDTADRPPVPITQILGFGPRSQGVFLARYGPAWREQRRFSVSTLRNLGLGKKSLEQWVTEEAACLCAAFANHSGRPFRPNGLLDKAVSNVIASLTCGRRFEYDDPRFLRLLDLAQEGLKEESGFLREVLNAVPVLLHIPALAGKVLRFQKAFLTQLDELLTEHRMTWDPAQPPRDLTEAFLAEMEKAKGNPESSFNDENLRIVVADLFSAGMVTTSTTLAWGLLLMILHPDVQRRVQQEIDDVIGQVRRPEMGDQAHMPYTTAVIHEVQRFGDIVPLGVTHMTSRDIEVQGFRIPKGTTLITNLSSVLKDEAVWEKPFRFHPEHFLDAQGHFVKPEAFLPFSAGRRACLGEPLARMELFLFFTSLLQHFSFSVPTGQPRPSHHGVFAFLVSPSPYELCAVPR
metric.name: IC50

Give Cytochrome P450 2D6 (Homo sapiens, UniProt P10635) IC50 for the following compound: `Cc1onc(-c2ccccc2Cl)c1C(=O)N(C)c1ccc(Cl)cc1`
> 10 µM

---

Experiment: Intrinsic clearance in dog hepatocytes
Assay type: ADME, cell-based, Canis lupus familiaris, Liver, Hepatocyte
metric.name: CLint (mL/min/g)
Give bare numbers, in mL/min/g.

[
  {
    "mol": "Cc1onc(-c2ccccc2Cl)c1C(=O)N(C)c1ccc(Cl)cc1",
    "result.unit": "mL/min/g",
    "CLint": 90
  }
]

Field: next compound
Name the recorded CLint of the item `Cc1ccc(N(C)C(=O)c2c(-c3ccccc3Cl)noc2C)cc1Cl` in your answer.
111
